- Test system: L1210 leukemia ip in BDF1 mice, survival T/C
- PROTOCOL_DESCRIPTION: NCI In Vivo Anticancer Drug Screen. Data for tumor model L1210 Leukemia (intraperitoneal) in B6D2F1 (BDF1) mice
- RUN_CONDITIONS: endpoint: mean survival time; dose: 100.0 mg/kg/injection; schedule: Q01DX005 (ip); vehicle: saline; higher = longer survival
- Procedure: The antitumor activity of compounds was measured in mice bearing transplantable tumors. Survival or tumor size were measured and the results are expressed as the measurement made in the treated group (T) divided by the measurement made in the vehicle treated control group (C). The tumor model used in this assay is L1210 Leukemia (intraperitoneal) in B6D2F1 (BDF1) mice
Toxic doses and inconclusive results are not listed.
Exercise: for every item that follows, state its recorded T/C.

// query Which value of T/C has been reported for C[Se]c1nc2c(=O)[nH]c(N)nc2n1C1OC(CO)C(O)C1O (centres undefined) in the records?
// result 107 % of control

// query COc1nc(Cl)cc2c1ncn2C1OC(CO)C(O)C1O (centres undefined) , same question.
// result 111 % of control

// query Nc1ncnc2c1ncn2C1OC(COP(=O)(O)O)C(O)C1O (centres undefined) , same question.
// result 98 % of control

// query C=CCSc1nc(N)nc2c1ncn2C1CC(O)C(CO)O1 (centres undefined) , same question.
// result 102 % of control

---

- Tested on: L1210 leukemia ip in BDF1 mice, survival T/C
- PROTOCOL_DESCRIPTION: NCI In Vivo Anticancer Drug Screen. Data for tumor model L1210 Leukemia (intraperitoneal) in B6D2F1 (BDF1) mice
- RUN_CONDITIONS: endpoint: mean survival time; dose: 400.0 mg/kg/injection; schedule: Q01DX009 (ip); vehicle: Klucel (hydroxypropylcellulose) (HPC); higher = longer survival
Inconclusive results and toxic doses are left out.
PARAMETER: T/C

// query Which value of T/C has been reported for O=C(O)c1ccc(Br)c([N+](=O)[O-])c1 in the records?
// result 92 % of control

// query NC(=O)c1ccccc1NC(=O)Nc1ccccc1 , same question.
// result 89 % of control

// query O=C(NCCBr)Nc1ccc2c(c1)OCO2 , same question.
// result 96 % of control

// query NC1=NC(=O)C(c2ccccc2)(c2ccccc2)S1 , same question.
// result 97 % of control

// query Brc1cnc(OCc2ccccc2)nc1OCc1ccccc1 , same question.
// result 104 % of control

// query CC1CCCCN1C(=O)Nc1cccc(F)c1 (configuration not stated) , same question.
// result 111 % of control

// query O=C(COc1ccc([N+](=O)[O-])cc1Cl)N1CCOCC1 , same question.
// result 101 % of control

---

Exercise: for every item that follows, state its recorded T/C.
- Test system: L1210 leukemia ip in BDF1 mice, survival T/C
- PROTOCOL_DESCRIPTION: NCI In Vivo Anticancer Drug Screen. Data for tumor model L1210 Leukemia (intraperitoneal) in B6D2F1 (BDF1) mice
- RUN_CONDITIONS: endpoint: mean survival time; dose: 25.0 mg/kg/injection; schedule: Q04DX003 (ip); vehicle: saline; higher = longer survival
Inconclusive results and toxic doses are left out.

// query Which value of T/C has been reported for CN(C)CCOc1ccccc1Cc1ccccc1 in the records?
// result 107 % of control

// query COC(=O)C1=CC(C(=O)OC)C(C(=O)OC)N2C=CSC2=C1 (centres undefined) , same question.
// result 93 % of control

// query CC(C)=CCCC(C)CCN(C)C (centres undefined) , same question.
// result 96 % of control

// query NC(CS)=NC1CCCC1 , same question.
// result 115 % of control

// query O=C(CCN1CCCCC1)c1cccc([N+](=O)[O-])c1 , same question.
// result 101 % of control

// query c1ccc([P+](Cc2nc3ccccc3[nH]2)(c2ccccc2)c2ccccc2)cc1 , same question.
// result 97 % of control

// query COc1ccc(/C=C/[N+](=O)[O-])cc1O , same question.
// result 98 % of control

// query CCC[P+](c1ccccc1)(c1ccccc1)c1ccccc1 , same question.
// result 108 % of control

// query CCC1CC[N-]CC1.CCC1CC[N-]CC1.[Cl][Pt+2]([Cl])([Cl])[Cl] , same question.
// result 95 % of control

---

- Tested on: L1210 leukemia ip in BDF1 mice, survival T/C
- PROTOCOL_DESCRIPTION: NCI In Vivo Anticancer Drug Screen. Data for tumor model L1210 Leukemia (intraperitoneal) in B6D2F1 (BDF1) mice
- RUN_CONDITIONS: endpoint: mean survival time; dose: 200.0 mg/kg/injection; schedule: Q04DX003 (ip); vehicle: Klucel (hydroxypropylcellulose) (HPC); higher = longer survival
- Experimental: The antitumor activity of compounds was measured in mice bearing transplantable tumors. Survival or tumor size were measured and the results are expressed as the measurement made in the treated group (T) divided by the measurement made in the vehicle treated control group (C). The tumor model used in this assay is L1210 Leukemia (intraperitoneal) in B6D2F1 (BDF1) mice
Inconclusive results and toxic doses are left out. Square brackets hold non-standard residues; d marks the D form. Peptide text beside a SMILES is read from it. * marks the point of attachment. ξ: configuration not given here. Cbz = O=C(OCc1ccccc1)*; ξI = CCC(C)C(N)C(=O)O
PARAMETER: T/C

// query Which value of T/C has been reported for Oc1ccccc1OCc1ccccc1 in the records?
// result 92 % of control

// query CCC(C)C(NC(=O)CNC(=O)CNC(=O)OCc1ccccc1)C(=O)OC (stereo not drawn) (Cbz-Gly-Gly-[ξI]-OMe) , same question.
// result 96 % of control

// query O=S(=O)(CCCl)c1ccccc1 , same question.
// result 97 % of control

// query O=c1[nH]/c(=C\c2ccc3c(c2)OCO3)c(=O)[nH]/c1=C\c1ccc2c(c1)OCO2 , same question.
// result 96 % of control

// query Cc1c(N)c(C)c(-c2c(O)c(Br)c(C)c(O)c2Br)c(C)c1Br , same question.
// result 96 % of control

// query CCC(=O)C(=O)Cc1cc[n+]([O-])c2ccccc12 , same question.
// result 97 % of control

// query CCc1ccccc1NC(=O)c1cccc(C(=O)Nc2ccccc2CC)c1 , same question.
// result 88 % of control

// query CC(/C=N/O)=C1C=CC=C1 , same question.
// result 98 % of control

// query C(CCCCc1nn[nH]n1)CCCc1nn[nH]n1 , same question.
// result 103 % of control

// query CO/N=C1/C=C(C)C(=O)C(C)=C1C , same question.
// result 92 % of control

// query ClC(Cl)C(Cl)(Cl)C(Cl)(Cl)Cl , same question.
// result 108 % of control

// query Cc1ccc(CNc2ccc(C)cc2)cc1 , same question.
// result 100 % of control

// query Cc1cc(C)nc(NC(=O)Nc2ccccc2)c1 , same question.
// result 92 % of control

// query O=C(O)CN1C(=O)CN=C(c2ccccn2)c2cc(Cl)ccc21 , same question.
// result 100 % of control

// query Cc1ccc([N+](=O)[O-])cc1NC(=O)COc1ccc(Cl)cc1Cl , same question.
// result 102 % of control

// query O=C(NC1CCCCC1)Oc1ccc(-c2ccccc2)cc1Cl , same question.
// result 104 % of control

// query COC(=O)C1ON(C(=O)c2ccccc2)C(C)C(O)C1I (stereo not given) , same question.
// result 97 % of control

// query NC(=O)C1CCN(C(=O)Nc2cc(C(F)(F)F)ccc2Cl)CC1 , same question.
// result 103 % of control

// query Nc1ncnc2nc(N=Nc3ccc(S(=O)(=O)N(CCCl)CCCl)cc3)[nH]c12 , same question.
// result 96 % of control

// query Nc1ncnc2c(-c3ccccc3)c[nH]c12 , same question.
// result 100 % of control

// query c1ccc(-c2nc3ccccc3c3ccccc23)cc1 , same question.
// result 103 % of control

// query Cc1cccc(C)c1NC(=O)/C=C\C(=O)O , same question.
// result 91 % of control

// query COC(=O)C1C2C=CC(C2=C(C)C)C1C(=O)OC (stereo not given) , same question.
// result 94 % of control

// query CN(C)S(=O)(=O)c1ccc(C=C(c2ccccc2)c2ccccc2)cc1 , same question.
// result 94 % of control

// query CCC(=O)OC1CC2C3CCC4=CC(=O)CCC4(C)C3CCC2(C)C1OC(=O)CC (stereo not given) , same question.
// result 95 % of control

// query CC(=O)NC(Cc1ccccc1)C(=O)O (stereo not given) , same question.
// result 100 % of control

// query CCCCCC(OCC)(OCC)OCC , same question.
// result 93 % of control

// query COC(=O)C(=CC(Cl)(Cl)Cl)C(=O)OC , same question.
// result 102 % of control

// query COc1cccc(OC)c1OS(=O)(=O)c1ccc(COc2ccc([N+](=O)[O-])cc2Cl)cc1 , same question.
// result 90 % of control

// query CN1C(=O)OC2(CCN(Cc3ccc([N+](=O)[O-])o3)CC2)C1=O , same question.
// result 96 % of control

// query CN(C)c1ccc(/C=[N+](\[O-])c2cccc(Cl)c2)cc1 , same question.
// result 100 % of control

// query CCC/C(=C\C(=O)O)CC , same question.
// result 90 % of control

// query Clc1cc(Cl)cc(N=Nc2ccccc2)c1 , same question.
// result 103 % of control

// query O=C(O)c1cccc(N=Cc2ccc3c(c2)CCC3)c1 , same question.
// result 94 % of control

// query O=[N+]([O-])c1ccc(/C=C/c2ncc[nH]2)o1 , same question.
// result 92 % of control

// query Cc1ccc(S(=O)(=O)Oc2ccc([N+](=O)[O-])cc2[N+](=O)[O-])cc1 , same question.
// result 96 % of control

// query C=C(C)C1CCC2(C(=O)O)CCC3(C)C(CCC4C5(C)CCC(=O)C(C)(C)C5CCC43C)C12 (stereo not given) , same question.
// result 96 % of control

// query Cc1cc(C)cc(OCC(=O)O)c1 , same question.
// result 90 % of control

// query N#CC1CC(c2ccccc2)Nc2ccccc2N1 (stereo not given) , same question.
// result 98 % of control

// query CCCCCCCCCCCS(=O)(=O)C(CCOS(C)(=O)=O)COS(C)(=O)=O (stereo not given) , same question.
// result 98 % of control

// query CCOC(=O)/C(N=O)=C(/O)c1ccncc1 , same question.
// result 102 % of control

// query Cc1cc(C)c(C(N)=O)c(N)n1 , same question.
// result 90 % of control

// query Cc1ccc(NC(=O)c2ccccc2)cc1Cl , same question.
// result 101 % of control

// query CN1C(=O)CCS(=O)(=O)C1c1ccc(Cl)c(Cl)c1 (stereo not given) , same question.
// result 108 % of control

// query C=CCN(CC=C)c1nn[nH]n1 , same question.
// result 88 % of control

// query O=C1OC(=O)C2C3c4ccccc4C(c4ccccc43)C12 (stereo not given) , same question.
// result 90 % of control

// query CC(C)CNS(=O)(=O)c1ccc(Cl)c([N+](=O)[O-])c1 , same question.
// result 97 % of control

// query O=CNC(NC=O)c1ccccc1[N+](=O)[O-] , same question.
// result 98 % of control

// query CCOC(=O)c1cnc(SC)nc1C(=O)OCC , same question.
// result 102 % of control

// query ClC1(c2ccccc2)c2ccc(Br)cc2-c2cc(Br)ccc21 , same question.
// result 107 % of control

These data points were gathered from PubChem BioAssay AID248.
